Test system: PSMA-expressing LNCaP tumor xenografts
Test: Ex vivo biodistribution in LNCaP tumor-bearing mice
Settings: LNCaP tumor-bearing mice, 1 h post injection, mean ± SD, n = 4
Method: Biodistribution studies were conducted at 1 h post injection with ^68Ga-labeled AV01017, AV01030, AV01038, HTK03041, and FAPI-04 in LNCaP tumor-bearing mice (Figure 5 and Table S4, Supplementary Materials). […] For biodistribution studies, the mice were injected with the radiotracer (~2–4 MBq) as described above. […] Blood was withdrawn by cardiac puncture, and organs/tissues of interest were collected, weighed, and counted using a Perkin Elmer (Waltham, MA, USA) Wizard2 2480 automatic gamma counter.
As shown below, each of these compounds has a reported Kidneys uptake value.
reported-endpoint: Kidneys uptake (%ID/g)

- N#C[C@@H]1CC(F)(F)CN1C(=O)CNC(=O)c1ccnc2ccc(OCCCc3cn(CC(=O)N[C@@H](CCCCNC(=O)CN4CCN(CC(=O)[O-])CCN(CC(=O)[O-])CCN(CC(=O)[O-])CC4)C(=O)NCC(=O)NC[C@H]4CC[C@H](C(=O)N[C@@H](Cc5c6ccccc6cc6ccccc56)C(=O)NCCCC[C@H](NC(=O)N[C@@H](CCC(=O)O)C(=O)O)C(=O)O)CC4)nn3)cc12.[68Ga+3] [[^68Ga]Ga-AV01017]: 30.9
- N#C[C@@H]1CC(F)(F)CN1C(=O)CNC(=O)c1ccnc2ccc(-c3cn(CC(=O)N[C@@H](CCCCNC(=O)CN4CCN(CC(=O)[O-])CCN(CC(=O)[O-])CCN(CC(=O)[O-])CC4)C(=O)NCC(=O)NC[C@H]4CC[C@H](C(=O)N[C@@H](Cc5c6ccccc6cc6ccccc56)C(=O)NCCCC[C@H](NC(=O)N[C@@H](CCC(=O)O)C(=O)O)C(=O)O)CC4)nn3)cc12.[68Ga+3] [[^68Ga]Ga-AV01030]: 44.0
- N#C[C@@H]1CC(F)(F)CN1C(=O)CNC(=O)c1ccnc2ccc(OCCCN3CCN(C(=O)CN4CCN(CC(=O)[O-])CCN(CC(=O)[O-])CCN(CC(=O)[O-])CC4)CC3)cc12.[68Ga+3] [[^68Ga]Ga-FAPI-04, reference compound]: 2.36
- N#C[C@@H]1CC(F)(F)CN1C(=O)CNC(=O)c1ccnc2ccc(OCc3cn(CC(=O)N[C@@H](CCCCNC(=O)CN4CCN(CC(=O)[O-])CCN(CC(=O)[O-])CCN(CC(=O)[O-])CC4)C(=O)NCC(=O)NC[C@H]4CC[C@H](C(=O)N[C@@H](Cc5c6ccccc6cc6ccccc56)C(=O)NCCCC[C@H](NC(=O)N[C@@H](CCC(=O)O)C(=O)O)C(=O)O)CC4)nn3)cc12.[68Ga+3] [[^68Ga]Ga-AV01038]: 40.5
